Target: TRKA kinase (Homo sapiens (Human), UniProt P04629)
Sequence (P04629 33-796): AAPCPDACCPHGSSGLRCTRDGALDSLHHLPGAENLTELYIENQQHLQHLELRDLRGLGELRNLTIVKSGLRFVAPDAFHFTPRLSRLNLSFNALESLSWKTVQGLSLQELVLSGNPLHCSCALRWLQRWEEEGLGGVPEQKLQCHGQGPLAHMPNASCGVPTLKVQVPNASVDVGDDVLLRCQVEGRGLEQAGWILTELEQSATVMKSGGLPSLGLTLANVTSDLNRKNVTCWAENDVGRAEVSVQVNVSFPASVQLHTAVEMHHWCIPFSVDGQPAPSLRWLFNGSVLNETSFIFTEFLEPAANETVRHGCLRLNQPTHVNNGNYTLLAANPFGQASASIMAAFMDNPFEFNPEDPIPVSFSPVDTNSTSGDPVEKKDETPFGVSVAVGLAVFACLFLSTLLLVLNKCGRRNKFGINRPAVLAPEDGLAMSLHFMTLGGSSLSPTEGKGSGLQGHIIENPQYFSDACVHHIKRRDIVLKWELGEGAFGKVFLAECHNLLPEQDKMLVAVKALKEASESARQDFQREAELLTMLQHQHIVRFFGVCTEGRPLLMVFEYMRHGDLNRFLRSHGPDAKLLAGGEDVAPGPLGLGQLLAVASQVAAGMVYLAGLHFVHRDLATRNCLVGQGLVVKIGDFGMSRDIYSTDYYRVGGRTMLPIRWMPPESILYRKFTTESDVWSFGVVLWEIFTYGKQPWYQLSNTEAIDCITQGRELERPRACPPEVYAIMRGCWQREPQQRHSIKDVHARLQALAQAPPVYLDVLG
measured-parameter: IC50

Requested field: IC50. Item: COc1cn(-c2ccc(F)cc2C)nc1C(=O)Nc1ccc(Oc2ccnc3cc(OCCCN4CCOCC4)c4c(c23)OCCO4)c(F)c1 [Example 27] < 50 nM

More entries:
Consider the molecule COc1cc2ncnc(Oc3ccc(NC(=O)c4c(OC)ccn(-c5ccc(F)cc5)c4=O)cc3F)c2c2c1OCCO2 [Example 2] and give its measured IC50. < 50 nM

Returns the measured IC50 for the input molecule. Input: CCOc1ccn(-c2ccc(F)cc2)c(=O)c1C(=O)Nc1ccc(Oc2ccnc3cc(OCCCO)c4c(c23)OCCO4)c(F)c1 [Example 54] < 50 nM

What value of IC50 has been reported for the following molecule? COc1cn(-c2ccc(F)cc2C)nc1C(=O)Nc1ccc(Oc2ccnc3cc(OC)c4c(c23)OCCO4)c(F)c1 [Example 24] < 50 nM
